Listing of recorded viability by entry.
assayExplanation: drug combination growth inhibition, ovarian cancer – cell-based, oncology-focused library, rucaparib conditional, profiling panel (AID 1508598)
measurementSetup: patient-derived ovarian cancer cells, CellTiter-Glo viability, 144 h; at 0.0195 µM; OCI-P5x cells; without rucaparib; stronger effect = lower value
reportedProperty: viability (%)

>>> assayvalue("Cc1cc(CS(=O)(=O)c2ccccc2)cc(OCc2ccc(CN3CCC[C@@H]3CO)cc2)c1")
103
>>> assayvalue("CN(C)N=Nc1nc[nH]c1C(N)=O")
112
>>> assayvalue("CC1(C)CCC(c2ccc(Cl)cc2)=C(CN2CCN(c3ccc(C(=O)NS(=O)(=O)c4ccc(N[C@H](CCN5CCOCC5)CSc5ccccc5)c(S(=O)(=O)C(F)(F)F)c4)cc3)CC2)C1")
101
>>> assayvalue("CC(C)OC(=O)C1=CN(C(=O)c2ccc(F)c(F)c2)CC(C)(C)c2c1[nH]c1ccccc21")
115
>>> assayvalue("CC[C@@H]1C(=O)N(C)c2cnc(Nc3ccc(C(=O)NC4CCC(N5CCN(CC6CC6)CC5)CC4)cc3OC)nc2N1C(C)C (stereo not given in full)")
18.3

###

assayExplanation: growth inhibition of DIPG cells – cell-based, MIPE5.0 library, qHTS (AID 1347068);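 for IC50: cells exposed to compound for 48 hours before viability readout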
measurementSetup: SU-DIPG-XXV viability
Inconclusive results are not listed. The source made the active and inactive calls. The limit is not given here; nearly all actives have IC50 up to about 30 µM.
Labels: active, inactive

>>> label("Cc1nn(C)c(COc2ccc(N3CCN(S(=O)(=O)N(C)C)CC3)cc2)c1-c1cccc2c(CCCOc3cccc4ccccc34)c(C(=O)O)n(CCN3CCOCC3)c12")
"inactive"
>>> label("COc1nc(-c2ccc3c(c2)OCO3)n(-c2ccc(NC(=O)CSc3ccccc3)cc2)n1")
"inactive"
>>> label("C[C@@H]1O[C@@H](O[C@@H]2\\C=C/C=C\\C=C/C=C\\C[C@H](C)OC(=O)/C=C\\[C@H]3O[C@@H]3C[C@H](O)C[C@]3(O)C[C@@H](O)[C@@H](C(=O)O)[C@H](C2)O3)[C@H](O)[C@H](N)[C@@H]1O")
"inactive"
>>> label("CCCS(=O)(=O)Nc1ccc(F)c(C(=O)c2c[nH]c3ncc(Cl)cc23)c1F")
"inactive"
>>> label("Nc1nc(NCCNc2ncc(-n3ccnc3)c(-c3ccc(Cl)cc3Cl)n2)ccc1[N+](=O)[O-]")
"inactive"
>>> label("Cc1ncc(NC(=O)c2cccc(C(F)(F)F)c2)cc1-c1cnc(OC2CCOCC2)c(N2CCOCC2)c1")
"active"
>>> label("Nc1cccc(S(=O)(=O)N2CCCN(S(=O)(=O)c3ccc4c(c3)OCCO4)CC2)c1")
"inactive"
>>> label("NC(=NCCCCCCN=C(N)N=C(N)Nc1ccc(Cl)cc1)N=C(N)Nc1ccc(Cl)cc1")
"active"
>>> label("CCCC1(CCC)CCC2(CCN(CCCN(CC)CC)C2)CC1")
"active"
>>> label("CC(=O)OC[C@@H]1O[C@@H](n2ccc(=O)[nH]c2=O)[C@H](OC(C)=O)[C@@H]1OC(C)=O")
"inactive"
>>> label("C[C@@H]1CC[C@@]2(OC1)OC1CC3C4CC=C5CC(O)CCC5(C)C4CCC3(C)C1[C@@H]2C (stereo partly specified)")
"inactive"
>>> label("CN[C@@H]1[C@@H](O)[C@@H](O[C@@H]2[C@@H](O)[C@H](O[C@H]3O[C@H](CN)[C@@H](O)[C@H](O)[C@H]3O)[C@@H](N)C[C@H]2NC(=O)C(O)CN)OC[C@]1(C)O (stereo partly specified)")
"inactive"
>>> label("CNS(=O)(=O)c1ccc2c(c1)/C(=C/c1[nH]c3c(c1CCCN1CCN(C)CC1)CCCC3)C(=O)N2")
"inactive"
>>> label("N#Cc1ccnc(Nc2cc(C3CCN(C4COC4)CC3)cc(N3CCC(F)(F)C3)n2)c1")
"active"
>>> label("CN(C)c1ccc(-c2nc3ncc(Cl)c(N4CCN(CC(=O)Nc5nccs5)CC4)c3[nH]2)cc1")
"inactive"
>>> label("COc1ccc(-c2ccc3ncc4c(c3c2)n(-c2ccc(N3CCNCC3)c(C(F)(F)F)c2)c(=O)n4C)cn1")
"active"
